Test Target: Cytochrome P450 2C8 (Homo sapiens)
Sequence (P10632 whole entry): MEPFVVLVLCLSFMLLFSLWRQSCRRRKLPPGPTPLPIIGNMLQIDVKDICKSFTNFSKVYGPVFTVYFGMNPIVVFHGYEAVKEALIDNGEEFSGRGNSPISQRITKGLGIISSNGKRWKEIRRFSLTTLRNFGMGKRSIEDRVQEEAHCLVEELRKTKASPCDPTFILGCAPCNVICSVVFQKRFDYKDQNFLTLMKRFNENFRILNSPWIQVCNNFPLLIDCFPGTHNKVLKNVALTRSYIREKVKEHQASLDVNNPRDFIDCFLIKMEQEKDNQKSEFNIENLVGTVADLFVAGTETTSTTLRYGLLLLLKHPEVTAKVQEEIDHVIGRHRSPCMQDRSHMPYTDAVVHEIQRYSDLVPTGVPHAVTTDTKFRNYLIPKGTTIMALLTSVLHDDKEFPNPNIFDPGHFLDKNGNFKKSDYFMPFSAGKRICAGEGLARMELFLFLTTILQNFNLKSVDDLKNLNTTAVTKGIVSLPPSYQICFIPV
Test Summary: Inhibition of CYP2C8 (unknown origin)
Format: ADME
Readout: INH

# example entries with known answers
CC(C)(C)NS(=O)(=O)c1ncc(-c2sc(C(=O)N[C@H]3C[C@H](C(=O)O)C3)nc2CC2CCCCC2)c2ccccc12 :: > 10 µM
C[C@H](NC(=O)c1cc(-c2sc(C(=O)N[C@H]3C[C@H](C(=O)O)C3)nc2CC2CCCCC2)cc(C2(C)CC2)c1)C(F)(F)F :: > 10 µM
Cc1c(S(=O)(=O)NC(C)(C)C)ccc(-c2sc(C(=O)N[C@H]3C[C@H](C(=O)O)C3)nc2CC2CCCCC2)c1OC(F)F :: 4 µM

// next entry
Item: CC(C)(C)NS(=O)(=O)c1ccc(-c2sc(C(=O)N3CC4(C3)CS(=O)(=O)C4)nc2CC2CCCCC2)c(Cl)c1Cl | System: Cytochrome P450 2C8 (Homo sapiens) | INH: > 10 µM

====

Test Target: PXR (NR1I2) (Homo sapiens)
Test Summary: […] at PXR LBD (unknown origin) expressed in HEK293 cells […] at 10 uM after 16 hrs by luciferase reporter gene assay relative to rifampicin
Assay type: ADME, cell-based
Experimental Setup: HEK293 cells expressing PXR LBD, read-out: Efficacy
Readout: Emax at 16 h, 10 µM (%)

CC(C)(C)NS(=O)(=O)c1ccc(-c2sc(C(=O)N[C@H]3C[C@H](C(=O)O)C3)nc2CC2CCCCC2)c(Cl)c1Cl :: 23

[I] C[C@H](NC(=O)c1cc(-c2sc(C(=O)N[C@H]3C[C@H](C(=O)O)C3)nc2CC2CCCCC2)cc(C2(C)CC2)c1)C(F)(F)F
[II] CC(C)(C)NS(=O)(=O)c1ccc(-c2sc(C(=O)NC3CS(=O)(=O)C3)nc2CC2CCCCC2)c2ccccc12
[III] CC(C)(C)NC(=O)c1cc(-c2sc(C(=O)N[C@H]3C[C@H](C(=O)O)C3)nc2CC2CCCCC2)cc(C2(C)CC2)c1
Query block: Order the items by recorded Emax at 16 h, 10 µM; the first position goes to the largest value. # list labels per requested ordering
Result block: II, I, III
(II: 187%, I: 94%, III: 53%)

[1] CC(C)(C)NS(=O)(=O)c1ncc(-c2sc(C(=O)N[C@H]3C[C@H](C(=O)O)C3)nc2CC2CCCCC2)c2ccccc12
[2] CC(C)(C)NS(=O)(=O)c1ccc(-c2sc(C(=O)N[C@H]3C[C@H](C(=O)O)C3)nc2CC2CCCCC2)c(Cl)c1
Query block: Could you kindly indicate whether 1 or 2 has the higher Emax at 16 h, 10 µM value? Give the label of your selection.
Result block: 2

====

Test Summary: Cmax in Sprague-Dawley rat at 5 mg/kg, po
Type: ADME, organism-based
Parameters: dose 5 mg/kg, route oral
Experimental Setup: in vivo
Readout: Cmax (ng/mL)

Here's what some known entries look like.
CC(C)(C)NS(=O)(=O)c1ccc(-c2sc(C(=O)N[C@H]3C[C@H](C(=O)O)C3)nc2CC2CCCCC2)c2ccccc12 :: 130
C[C@H](NS(=O)(=O)c1ccc(-c2sc(C(=O)NCC(C)(C)O)nc2CC2CC2)c2ccccc12)C(F)(F)F :: 55

[a] C[C@H](NS(=O)(=O)c1ccc(-c2sc(C(=O)NCC(C)(C)O)nc2CC2CCC2)c(C(F)F)c1)C(F)(F)F
[b] CC(C)(C)NS(=O)(=O)c1ccc(-c2sc(C(=O)N[C@H]3C[C@H](C(=O)O)C3)nc2CC2CCCCC2)c(Cl)c1
[c] C[C@H](NS(=O)(=O)c1ccc(-c2sc(C(=O)NC3CCS(=O)(=O)CC3)nc2CC2CC2)c2ccccc12)C(F)(F)F
Query block: List the 3 entries from lowest Cmax to highest Cmax value. Return the labels ranked in the requested order, please.
Result block: a, b, c

====

Test Target: UniProtKB O75469
Sequence (O75469 whole entry): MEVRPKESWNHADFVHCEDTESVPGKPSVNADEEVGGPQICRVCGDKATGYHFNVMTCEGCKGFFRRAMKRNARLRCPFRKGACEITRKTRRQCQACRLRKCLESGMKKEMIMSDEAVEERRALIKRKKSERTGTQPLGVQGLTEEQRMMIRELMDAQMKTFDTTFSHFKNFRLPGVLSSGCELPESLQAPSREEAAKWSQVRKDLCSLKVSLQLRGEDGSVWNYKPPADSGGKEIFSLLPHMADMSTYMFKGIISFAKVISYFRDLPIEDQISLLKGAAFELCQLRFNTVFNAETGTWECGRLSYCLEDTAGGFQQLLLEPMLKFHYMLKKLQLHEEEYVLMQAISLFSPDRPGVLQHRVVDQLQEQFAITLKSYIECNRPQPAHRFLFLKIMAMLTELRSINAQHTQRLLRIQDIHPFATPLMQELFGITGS
Test Summary: […] at PXR LBD (unknown origin) expressed in HEK293 cells […] at 1 uM after 16 hrs by luciferase reporter gene assay relative to rifampicin
Assay type: ADME, cell-based
Experimental Setup: HEK293 cells expressing PXR LBD, read-out: Efficacy
Readout: Emax at 16 h, 1 µM (%)

[A] CC(C)(C)NS(=O)(=O)c1ccc(-c2sc(C(=O)NC3CCOCC3)nc2CC2CCCCC2)c2ccccc12
[B] CC(C)(C)NS(=O)(=O)c1ccc(-c2sc(C(=O)NC34CC(C(=O)O)(C3)C4)nc2CC2CCCCC2)c2ccccc12
[C] C[C@H](NS(=O)(=O)c1ccc(-c2sc(C(=O)NCC(C)(C)O)nc2CC2CC2)c2ccccc12)C(F)(F)F
[D] CC[C@H](NC(=O)c1cc(-c2sc(C(=O)N[C@H]3C[C@H](C(=O)O)C3)nc2CC2CCCCC2)cc(C2(C)CC2)c1)C(F)(F)F
Query block: Sort the entries above by Emax at 16 h, 1 µM, smallest first. List each label, following the requested order.
Result block: D, B, C, A

====

Test Target: PXR (NR1I2) (Homo sapiens, UniProt O75469)
Test Summary: […] at PXR LBD (unknown origin) expressed in HEK293 cells […] at 1 uM after 16 hrs by luciferase reporter gene assay relative to rifampicin
Format: ADME, cell-based
Experimental Setup: HEK293 cells expressing PXR LBD, read-out: Efficacy
Readout: Emax at 16 h, 1 µM (%)

CC(C)(C)NS(=O)(=O)c1ccc(-c2sc(C(=O)N[C@H]3C[C@H](C(=O)O)C3)nc2CC2CCCCC2)c2c1CCCC2 :: 10

[P] CC(C)(C)NS(=O)(=O)c1ccc(-c2sc(C(=O)NCC(C)(C)C(N)=O)nc2CC2CCCCC2)c2ccccc12
[Q] CC(C)(C)NC(=O)c1cc(-c2sc(C(=O)N[C@H]3C[C@H](C(=O)O)C3)nc2CC2CCCCC2)cc(C2(C)CC2)c1
[R] CC(C)(C)NS(=O)(=O)c1ccc(-c2sc(C(=O)NC3CCS(=O)(=O)CC3)nc2C(C)(C)C)c2ccccc12
[S] CC(C)(C)c1cc(-c2sc(C(=O)N[C@H]3C[C@H](C(=O)O)C3)nc2CC2CCCCC2)cc(C(O)(C(F)(F)F)C(F)(F)F)c1
Query block: Sort (4 compounds) by Emax at 16 h, 1 µM: min first. Write the labels, ordered according to the request.
Result block: Q, S, R, P

====

Test Target: Cytochrome P450 1A2 (Homo sapiens, UniProt P05177)
Sequence (P05177 whole entry): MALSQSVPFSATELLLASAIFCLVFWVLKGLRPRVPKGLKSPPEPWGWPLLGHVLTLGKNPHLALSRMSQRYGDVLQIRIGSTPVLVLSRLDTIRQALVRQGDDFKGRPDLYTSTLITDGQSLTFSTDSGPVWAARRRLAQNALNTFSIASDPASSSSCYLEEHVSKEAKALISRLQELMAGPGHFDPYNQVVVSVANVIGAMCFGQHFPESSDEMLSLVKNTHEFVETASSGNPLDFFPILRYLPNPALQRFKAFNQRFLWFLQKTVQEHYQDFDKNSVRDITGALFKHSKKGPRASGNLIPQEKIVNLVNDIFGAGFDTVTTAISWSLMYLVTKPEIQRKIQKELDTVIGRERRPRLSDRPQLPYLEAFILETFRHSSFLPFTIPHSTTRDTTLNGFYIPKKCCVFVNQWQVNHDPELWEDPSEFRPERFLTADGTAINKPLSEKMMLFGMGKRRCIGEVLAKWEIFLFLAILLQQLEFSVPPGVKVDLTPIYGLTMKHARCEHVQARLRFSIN
Test Summary: Inhibition of CYP1A2 (unknown origin)
Format: ADME
Recorded INH for the following compounds

CC(C)(C)NS(=O)(=O)c1ccc(-c2sc(C(=O)N[C@H]3C[C@H](C(=O)O)C3)nc2CC2CCCCC2)c(Cl)c1 :: > 10 µM
CC(C)(O)CNC(=O)c1nc(CC2CCCCC2)c(-c2cnc(S(=O)(=O)NC(C)(C)C)c3ccccc23)s1 :: > 10 µM

Here's the next entry for you.
Entry C[C@H](NS(=O)(=O)c1ccc(-c2sc(C(=O)NC3CCS(=O)(=O)CC3)nc2CC2CC2)c2ccccc12)C(F)(F)F ; INH = > 10 µM

====

Test Target: Adenosine receptor A2a (Homo sapiens, UniProt P29274)
Sequence (P29274 whole entry): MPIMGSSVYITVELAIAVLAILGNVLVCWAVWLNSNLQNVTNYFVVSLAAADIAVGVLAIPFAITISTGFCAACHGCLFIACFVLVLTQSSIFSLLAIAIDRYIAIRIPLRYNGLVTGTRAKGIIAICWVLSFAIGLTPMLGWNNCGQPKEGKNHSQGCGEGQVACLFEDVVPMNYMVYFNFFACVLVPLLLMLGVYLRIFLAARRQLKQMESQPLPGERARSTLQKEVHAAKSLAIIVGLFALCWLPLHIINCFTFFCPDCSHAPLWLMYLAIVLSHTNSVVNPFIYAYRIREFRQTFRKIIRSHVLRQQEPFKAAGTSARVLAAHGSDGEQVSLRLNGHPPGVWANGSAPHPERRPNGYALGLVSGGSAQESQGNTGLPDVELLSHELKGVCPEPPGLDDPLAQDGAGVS
Test Summary: Displacement of [3H]-CGS 21680 from human recombinant adenosine A2A receptor after 120 mins by scintillation counting analysis
Readout: pIC50
When answering, recall that pIC50 equals minus log10 of the concentration in mol/L, and write that number alone.

CC(C)(C)NS(=O)(=O)c1ccc(-c2sc(C(=O)N[C@H]3C[C@H](C(=O)O)C3)nc2CC2CCCCC2)c2ccccc12 yielded pIC50 of 8.04

====

Test Target: Mu-type opioid receptor (Homo sapiens)
Sequence (P35372 whole entry): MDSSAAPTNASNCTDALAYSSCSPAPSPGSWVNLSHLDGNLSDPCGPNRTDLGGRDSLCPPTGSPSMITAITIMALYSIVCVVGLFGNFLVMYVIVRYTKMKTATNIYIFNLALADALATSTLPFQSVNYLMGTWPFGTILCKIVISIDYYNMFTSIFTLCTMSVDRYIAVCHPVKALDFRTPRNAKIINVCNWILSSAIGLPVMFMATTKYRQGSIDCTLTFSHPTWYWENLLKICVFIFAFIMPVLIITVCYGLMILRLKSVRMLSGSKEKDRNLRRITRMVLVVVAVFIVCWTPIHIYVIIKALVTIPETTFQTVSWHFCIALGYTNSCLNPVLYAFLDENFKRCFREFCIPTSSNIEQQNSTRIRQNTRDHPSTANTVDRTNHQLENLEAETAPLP
Test Summary: Displacement of [3H]DAMGO from human recombinant mu receptor after 120 mins by scintillation counting analysis
Readout: IC50 (nM)
I only need the number, in nM, no unit after it.

Memo: CC(C)(C)NS(=O)(=O)c1ccc(-c2sc(C(=O)N[C@H]3C[C@H](C(=O)O)C3)nc2CC2CCCCC2)c2ccccc12 , reported IC50: 1.1

Sourced from ChEMBL document CHEMBL4118122
